B1: glmS ribozyme (parent)
chain: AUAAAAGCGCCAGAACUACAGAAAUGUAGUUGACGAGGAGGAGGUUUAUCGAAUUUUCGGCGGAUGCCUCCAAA

variants of: B1; experiment: self-cleavage kobs at 10000 uM GlcN6P; higher = faster cleavage; RNA array; details: with glucosamine-6-phosphate
This sample holds only a part of the variants without activity.
observable: self-cleavage kobs at 10000 uM GlcN6P (s⁻¹)
Expressed in s⁻¹, but write only the number.

INPUT: Quick one: self-cleavage kobs at 10000 uM GlcN6P for AUAAAUGCGCCAGAACUACAGAAAUGUAGUUGACGAGGAGGAGGUUUAUCGAACUUUCGGCGGAUGCCUCCAAA [A6U U54C] ?
OUTPUT: 0.000195

INPUT: Quick one: self-cleavage kobs at 10000 uM GlcN6P for AUAAAAGCGCCAGAACUACAGAAAUGUAGUUGACGAGGAGGAGGUUUAUCGAAUUUUCGGCGGAAGCGUCCAAA [U65A C68G] ?
OUTPUT: 3.81e-05

INPUT: Quick one: self-cleavage kobs at 10000 uM GlcN6P for AUAAAAGCGCCAGAACUACAGAAAUGUAGUUGACGAGGAGGAGGGUUAUCGAUUUUUCGGCGGAUGCCUCCAAA [U45G A53U] ?
OUTPUT: 0.004

INPUT: Quick one: self-cleavage kobs at 10000 uM GlcN6P for AUAAAAGCGCCAGAACUACAGAAAUUUAGUUGACGAGGAGGAGGUUUAUCGAAUUUGCGGCGGAUGCCUCCAAA [G26U U57G] ?
OUTPUT: 5.83e-05
